# Test system: soybean rust
# MEASUREMENT PROTOCOL: Field trial, soybean rust
# Assay type: in vivo, Phakopsora pacchyrhizi Sydow
# SETUP CONDITIONS: dosage 50 mg/L, sprayed 2 times
The entries below are paired with their reported Control effect (%).
ATTRIBUTE MEASURED: Control effect (%)

                                   molecule  number
0  CO/C=C(/C(=O)OC)c1ccccc1Oc1cc(Oc2ccccc2C#N)ncn1   84.62
1  Cn1cc(C(=O)Nc2cccc3c2[C@@H]2CC[C@H]3C2=C(Cl)Cl)c(C(F)F)n1 (racemic)   91.46
2  OC(Cc1ccccc1Cl)(Cn1nc[nH]c1=S)C1(Cl)CC1 (centres unmarked)   91.15
3  Cn1cc(C(=O)Nc2ccccc2Oc2ccc(C(F)(F)F)cc2C(F)(F)F)c(C(F)F)n1   92.67
4  Cn1cc(C(=O)Nc2ccccc2Oc2ccc(C(F)(F)F)cc2I)c(C(F)F)n1   80.14
